# Experimental target: μ-site of opioid receptor (Rattus norvegicus, UniProt P33535)
# Construct: Semipurified synaptic membranes were prepared according to the method of Toll et al. (1984); from tissue; host or cells: adult male Sprague-Dawley rat forebrain membranes
# Sequence (P33535 whole entry): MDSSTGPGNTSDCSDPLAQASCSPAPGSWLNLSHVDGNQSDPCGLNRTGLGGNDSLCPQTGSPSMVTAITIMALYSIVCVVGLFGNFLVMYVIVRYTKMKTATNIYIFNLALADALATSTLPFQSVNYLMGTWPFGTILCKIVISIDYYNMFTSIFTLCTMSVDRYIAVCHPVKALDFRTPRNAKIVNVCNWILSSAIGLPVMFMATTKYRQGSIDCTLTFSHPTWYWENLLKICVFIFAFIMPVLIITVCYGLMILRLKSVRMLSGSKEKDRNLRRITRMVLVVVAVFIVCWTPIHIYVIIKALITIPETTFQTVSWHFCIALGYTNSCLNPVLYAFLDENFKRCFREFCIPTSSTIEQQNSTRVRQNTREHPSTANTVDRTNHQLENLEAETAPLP
# Test description: In vitro binding, inhibition of [^3 H]DAGO binding to rat forebrain synaptic membranes
# Set-up: species or system Sprague-Dawley rat
# Settings: read-out: Ki [^3 H]DAGO, 2 nM [^3 H]DAGO, 25° C., 1 hour
Recorded endpoint: pKi
Scale: negative log10 of molar concentration, which is what pKi denotes.

Prompt: Could you tell me which pKi is on file for CC(C1CC1)N1CC[C@]2(C)c3cc(F)ccc3C[C@H]1[C@H]2C (single isomer, unassigned; (+)) [(+)-BZ-14 (Isomer B)] ?
Response: 5.30

====

# Test system: NMDA-induced lethality
# Test description: In vivo protection in the mouse against NMDA-induced lethality
# Parameters: species or system Swiss-Webster mouse
# Settings: Mus musculus, ip, 30 minutes before 200 mg/kg NMDA, eight mice per dose, Litchfield and Wilcoxin
For each record, check the reported ED50: if it is below 20 mg/kg write Criterion met, else write Criterion not met.

Prompt: Does this compound meet the criterion ED50 < 20 mg/kg? C[C@@H]1[C@@H]2Cc3ccccc3[C@@]1(C)CCN2N(C)C [(+)-BZ-18]
Response: Criterion met

Prompt: Also check CC(C1CO1)N1CC[C@]2(C)c3ccccc3C[C@H]1[C@H]2C (mixture of isomers) [(+)-BZ-5 (Mixture of Isomer B and C)]
Response: Criterion not met

Prompt: Same question for CC(C)N1CC[C@]2(C)c3cc(F)ccc3C[C@H]1[C@H]2C [(+)-BZ-13] please.
Response: Criterion met

Prompt: Now consider CC(C)N1CC[C@]2(C)c3cc(Cl)ccc3C[C@H]1[C@H]2C [(+)-BZ-26] .
Response: Criterion met

Prompt: How about C=CC(C1CC1)N1CC[C@]2(C)c3ccccc3C[C@H]1[C@H]2C (single isomer, unassigned; (+)) [(+)-BZ-4] ?
Response: Criterion not met

Prompt: Similarly, C[C@@H]1[C@@H]2Cc3ccccc3[C@@]1(C)CCN2O [(+)-BZ-17A] ?
Response: Criterion not met

Prompt: Continue with COc1ccc2c(c1)[C@]13CCCC[C@@H]1[C@H](C2)N(C)CC3 [Dextromethorphan, reference compound]
Response: Criterion not met

Prompt: Now consider C[C@@H]1[C@@H]2Cc3ccccc3[C@@]1(C)CCN2C(C)(C)C [(+)-BZ-15A] .
Response: Criterion met

Prompt: Then this compound: CC(C)N1CC[C@]2(C)c3ccccc3C[C@H]1[C@H]2C [(+)-IIId-6]
Response: Criterion met

Prompt: Same for C[C@@H]1[C@@H]2Cc3ccccc3[C@@]1(C)CCN2C(C1CC1)C1CC1 [(+)-BZ-1]
Response: Criterion not met

Prompt: Same lookup for C=CC(C)N1CC[C@]2(C)c3ccccc3C[C@H]1[C@H]2C (single isomer, unassigned; (+)) [(+)-BZ-2] , please.
Response: Criterion not met

====

Kindly state Ki for each of the entries shown.
# Experimental target: NMDA receptor site
# Test description: In vitro binding, inhibition of [^3 H]MK-801 binding to rat forebrain synaptic membranes
# Settings: 3 nM [^3 H]MK-801, 50 μM glycine and glutamate, 37° C., 2 hours, read-out: Ki [^3 H]MK801
Answer in µM, number only, no unit symbol.

Prompt: Bench note: what Ki did C#CC(C)N1CC[C@]2(C)c3ccccc3C[C@H]1[C@H]2C (single isomer, unassigned; (+)) [(+)-BZ-6 (Isomer B)] show?
Response: 2.55

Prompt: Cool, now CC(C)N1CC[C@]2(C)c3cc(Cl)ccc3C[C@H]1[C@H]2C [(+)-BZ-26]
Response: 12.8

Prompt: Would you kindly repeat that for C[C@@H]1[C@@H]2Cc3ccccc3[C@@]1(C)CCN2C(C)(C)C [(+)-BZ-15A] ?
Response: 2.59

Prompt: Please give the result for CC(C)N1CC[C@]2(C)c3ccccc3C[C@H]1[C@H]2C [(+)-IIId-6] too.
Response: 3.51

Prompt: CC(C1CCC1)N1CC[C@]2(C)c3ccccc3C[C@H]1[C@H]2C (single isomer, unassigned; (+)) [(+)-BZ-3 (Isomer B)] , same question.
Response: 3.61

Prompt: Continue with C[C@@H]1[C@@H]2Cc3ccccc3[C@@]1(C)CCN2N(C)C [(+)-BZ-18]
Response: 4.54

Prompt: Now consider CC(C1CC1)N1CC[C@]2(C)c3ccccc3C[C@H]1[C@H]2C (single isomer, unassigned; (+)) [(+)-IIId-7 (Isomer B)] and answer again.
Response: 1.99

Prompt: And then C=CC(C)N1CC[C@]2(C)c3ccccc3C[C@H]1[C@H]2C (single isomer, unassigned; (+)) [(+)-BZ-2] , what is it?
Response: 1.32

Prompt: CC(C)N1CC[C@]2(C)c3cc(F)ccc3C[C@H]1[C@H]2C [(+)-BZ-13] ?
Response: 4.15

Prompt: Item: CC(C1CC1)N1CC[C@]2(C)c3cc(F)ccc3C[C@H]1[C@H]2C (single isomer, unassigned; (+)) [(+)-BZ-14 (Isomer B)]
Response: 3.53

Prompt: Field entry: C=CC(C1CC1)N1CC[C@]2(C)c3ccccc3C[C@H]1[C@H]2C (single isomer, unassigned; (+)) [(+)-BZ-4]
Response: 11.5

Prompt: How about this molecule: C#CC(C)N1CC[C@]2(C)c3ccccc3C[C@H]1[C@H]2C (single isomer, unassigned; (+)) [(+)-BZ-6 (Isomer A)]
Response: 16.6

Prompt: Cool, now CC(C1CC1)N1CC[C@]2(C)c3ccccc3C[C@H]1[C@H]2C (single isomer, unassigned; (+)) [(+)-IIId-7 (Isomer A)]
Response: 0.75

Prompt: Another: CC(C1CCC1)N1CC[C@]2(C)c3ccccc3C[C@H]1[C@H]2C (single isomer, unassigned; (+)) [(+)-BZ-3 (Isomer A)]
Response: 0.22

Prompt: Queued: C[C@@H]1[C@@H]2Cc3ccccc3[C@@]1(C)CCN2O [(+)-BZ-17A]
Response: 43

Prompt: Moving on to the next molecule: CC(C1CC1)N1CC[C@]2(C)c3cc(F)ccc3C[C@H]1[C@H]2C (single isomer, unassigned; (+)) [(+)-BZ-14 (Isomer A)]
Response: 0.85

Prompt: Please give the result for CC(C1CO1)N1CC[C@]2(C)c3ccccc3C[C@H]1[C@H]2C (single isomer, unassigned; (+)) [(+)-BZ-5 (Isomer A)] too.
Response: 29.2

Prompt: And what about the molecule CC(C1CO1)N1CC[C@]2(C)c3ccccc3C[C@H]1[C@H]2C (single isomer, unassigned; (+)) [(+)-BZ-5] ?
Response: 11.6

Prompt: Entry C[C@@H]1[C@@H]2Cc3ccccc3[C@@]1(C)CCN2C(C1CC1)C1CC1 [(+)-BZ-1] please
Response: 14
